B1: TPR t1 (parent)
chain: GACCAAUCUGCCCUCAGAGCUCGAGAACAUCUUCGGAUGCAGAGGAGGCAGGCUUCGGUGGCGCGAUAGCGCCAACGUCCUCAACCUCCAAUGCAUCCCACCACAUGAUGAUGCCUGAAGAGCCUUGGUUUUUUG

Variants of: B1
Test: polymerase ribozyme fitness, log enrichment relative to wild type (log ratio); higher = more active; in vitro selection for triplet polymerase activity
Classification field: criterion met = polymerase ribozyme fitness (log ratio) at or over -3; criterion not met = polymerase ribozyme fitness (log ratio) under -3.

*Q* Given the entry C3U C8A C11A U21A C124G , answer whether its polymerase ribozyme fitness (log ratio) meets or surpasses -3.
*A* criterion met

meta.source: the RNAGym collection of RNA variant scans (doi:10.1073/pnas.2313332121)
